# experimental.target: BFP-aq (Aequorea victoria, UniProt P07164)
# assay.overview: biochemical
# Assay type: biochemical
# Parameters: The recombinant apoaequorins encoded by piP-HE is composed of 191 amino acids, whose N-terminus starts from Ala-Asn-Ser-; made in house; host or cells: E. coli strain WA802
# test.conditions: pH 8, read-out: Luminescence activity (%) Imax
Assignment: determine reported activity at 30000 µM for the given compounds.
A number alone suffices; assume %.

Challenge: Can you share its activity at 30000 µM? I mean this compound: c1c[nH]cn1
Response given: 148

Challenge: Look at this compound and give its reported activity at 30000 µM. NCCc1c[nH]cn1
Response given: 69

Challenge: Request the reported activity at 30000 µM associated with NCCCC[C@H](N)C(=O)O
Response given: 60

Challenge: I'd like to know its activity at 30000 µM. The compound in question is CCN(CC)CC
Response given: 68

---

# experimental.target: BFP-aq (Aequorea victoria, UniProt P07164)
# assay.overview: biochemical
# Type: biochemical
# Set-up: The recombinant apoaequorins encoded by piP-HE is composed of 191 amino acids, whose N-terminus starts from Ala-Asn-Ser-; made in house; host or cells: E. coli strain WA802
# test.conditions: pH 8, read-out: Luminescence activity (%) Imax
Hi there, I'd appreciate the recorded activity at 150000 µM for every entry that follows.
Reply numerically in %, unit not repeated.

Challenge: Entry Cc1c[nH]cn1 : reported activity at 150000 µM = ?
Response given: 78

Challenge: Param item = C[C@H](N)C(=O)O ; retrieve measured activity at 150000 µM.
Response given: 77

Challenge: activity at 150000 µM lookup needed for NCCc1c[nH]cn1 , thanks.
Response given: 22

Challenge: Quick one: activity at 150000 µM of NCCCC[C@H](N)C(=O)O ?
Response given: 1

Challenge: # activity at 150000 µM lookup, item N[C@@H](Cc1c[nH]cn1)C(=O)O
Response given: 5

Challenge: Fill blank: measured activity at 150000 µM of the compound N=C(N)NCCC[C@H](N)C(=O)O is ____.
Response given: 1

Challenge: GET /values?readout=activity at 150000 µM&item= CCN(CC)CC
Response given: 8

Challenge: // query activity at 150000 µM value for entry c1c[nH]cn1
Response given: 199

Challenge: Fill in: activity at 150000 µM of Cc1ncc[nH]1 is ___
Response given: 16

---

# experimental.target: BFP-aq, luciferase with fluorescence activity derived from aequorin (recombinant apoaequorin, SEQ ID NO: 1 with N-terminal Val replaced by Ala-Asn-Ser; complex with coelenteramide and calcium ions) (Aequorea victoria, UniProt P02592)
# Construct: The recombinant apoaequorins encoded by piP-HE is composed of 191 amino acids, whose N-terminus starts from Ala-Asn-Ser-; made in house; host or cells: E. coli strain WA802 (expression vector piP-HE)
# Sequence (P02592 with tags, fused parts or gaps): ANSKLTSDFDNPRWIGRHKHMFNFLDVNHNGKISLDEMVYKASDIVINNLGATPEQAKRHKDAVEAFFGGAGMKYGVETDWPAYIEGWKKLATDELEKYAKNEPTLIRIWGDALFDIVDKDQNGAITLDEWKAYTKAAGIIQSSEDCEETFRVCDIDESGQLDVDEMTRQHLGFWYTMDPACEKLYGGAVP
# assay.overview: Enhancing effect of organic compounds on BFP-aq luminescence with coelenterazine as substrate (Table 4)
# Assay type: biochemical
# test.conditions: 150 mM compound, pH 8.0, 25° C., no addition = 100%, read-out: Luminescence activity, Imax
Counter-ions that a name gives are not always drawn.
experimental.readout: activity at 150000 µM (%)
Answer with a number only, understood to be in %.

Challenge: I am curious: what activity at 150000 µM value has been reported for NC(N)=O ?
Response given: 89

Challenge: Using the record for CC(N)=O [Acetamide/hydrochloride] , report its activity at 150000 µM.
Response given: 31

Challenge: Fill in: activity at 150000 µM of NC(=O)c1nc[nH]c1N is ___
Response given: 0

Challenge: Return reported activity at 150000 µM; argument: N=C(N)N [Guanidine/hydrochloride]
Response given: 109

Challenge: // lookup activity at 150000 µM for NCC(=O)O
Response given: 83
